# System: Klebsiella pneumoniae
Hi! Could you tag entries with MIC below 6 µg/mL as Met, and those at or above as Not met? Much appreciated.

# example entries with known answers
{"columns": ["smiles-string", "assigned-class"],
 "data": [
  ["CCn1cc(C(=O)O)c(=O)c2c(N)nc(N3CCN(C)CC3)nc21", "Not met"],
  ["CCn1cc(C(=O)O)c(=O)c2cc(F)c(C)nc21", "Not met"],
  ["CCn1cc(C(=O)O)c(=O)c2ccc(N3CCNCC3)cc21", "Not met"],
  ["CCn1cc(C(=O)O)c(=O)cc1-c1ccc(OC)cc1", "Not met"],
  ["CCn1cc(C(=O)O)c(=O)c2cc(F)c(/C=N/N3CCN(C)CC3)nc21", "Not met"],
  ["CCn1cc(C(=O)O)c(=O)c2ccc(N3CCN(CC#N)CC3)cc21", "Not met"],
  ["CCn1cc(C(=O)O)c(=O)c2cc(F)c(N3CCC(N4CCCC4)CC3)cc21", "Met"],
  ["CCn1cc(C(=O)O)c(=O)c2cc(F)c(N3CCC(N4CCN(C)CC4)CC3)cc21", "Not met"],
  ["CCn1cc(C(=O)O)c(=O)c2cc(F)c(SCCN)cc21", "Met"],
  ["CCn1cc(C(=O)O)c(=O)c2cc(F)c(N3CCSCC3)nc21", "Met"]
]}

Alright, here's another compound for you.
I wonder whether CCn1cc(C(=O)O)c(=O)c2cc(F)c(N3CCN(CCN)CC3)nc21 has MIC below 6 µg/mL. Can you tell?
Not met

###

# target-of-assay: DNA gyrase (Escherichia coli) (UniProt P0AES6+P0AES4)
property-measured: gyrase cleavage conc (µg/mL)
Answers are plain numbers, in µg/mL.

Observe how each entry below is paired with its result.
{"columns": ["smiles-string", "unit-name", "meas-value"],
 "data": [
  ["CCn1cc(C(=O)O)c(=O)c2ccc(C)nc21", "µg/mL", 50],
  ["CCn1cc(C(=O)O)c(=O)cc1-c1ccc(OC)cc1", "µg/mL", 100],
  ["CCn1cc(C(=O)O)c(=O)c2cnc(N3CCCC3)nc21", "µg/mL", 38],
  ["CCn1cc(C(=O)O)c(=O)c2cc(F)c(N3CCNCC3)cc21", "µg/mL", 1],
  ["CCn1cc(C(=O)O)c(=O)c2cc(F)c(N3CCN(CCCN(C)C)CC3)cc21", "µg/mL", 50]
]}

We next turn to a different compound, shown below.
If you can, please state the reported gyrase cleavage conc value of CCn1cc(C(=O)O)c(=O)c2ccc(/C=N/O)nc21 .
100

###

# Test system: Escherichia coli
# procedure-summary: Antibacterial activity against Escherichia coli (vogel)
Please go through the items and note down their MIC.
Answer with the number, then the unit.

Observe how each entry below is paired with its result.
{"columns": ["compound", "MIC"],
 "data": [
  ["CCn1cc(C(=O)O)c(=O)c2cc(F)c(/C=N/O)nc21", "6.3 µg/mL"],
  ["CCn1cc(C(=O)O)c(=O)c2cc(F)c(N3CCN(CCN)CC3)nc21", "12.5 µg/mL"],
  ["CCn1cc(C(=O)O)c(=O)c2cc(F)c(N3CCSCC3)cc21", "0.1 µg/mL"],
  ["CCn1cc(C(=O)O)c(=O)c2cc(F)c(SCCN)cc21", "0.8 µg/mL"]
]}

Batch: MIC for all items listed.
1. CCn1cc(C(=O)O)c(=O)c2cc(F)c(C)cc21
2. CCn1cc(C(=O)O)c(=O)c2cc(F)ccc21
3. CCn1cc(C(=O)O)c(=O)c2cc(F)c(N3CCN(C(C)=N)CC3)cc21
4. CCn1cc(C(=O)O)c(=O)c2ccc(-c3ccncc3)cc21 [ROSOXACIN]
5. CCn1cc(C(=O)O)c(=O)c2cc(F)c(N3CCC(N4CCN(C)CC4)CC3)cc21
6. CCn1cc(C(=O)O)c(=O)c2cc(F)c(-n3cccc3)cc21 [IRLOXACIN]
7. CCn1cc(C(=O)O)c(=O)c2cc(F)c(N3CCN(CCN)CC3)cc21

["0.2 µg/mL", "0.8 µg/mL", "0.8 µg/mL", "0.2 µg/mL", "3.1 µg/mL", "1.6 µg/mL", "25 µg/mL"]
